target: HA-VP16-TraR fusion (TraR from Agrobacterium strain A348 fused to VP16 activation domain; pMON53030) (UniProt P06492+P33905); construct: PCR fragments containing open reading frames are cloned into an expression construct; expressed in transfected cells; host or cells: carrot protoplasts from cell suspension culture, transient transfection; assay: Transient GUS reporter assay in transfected carrot protoplasts with VP16-TraR effector; assay type: cell-based, Agrobacterium tumefaciens; conditions: 1 µM of the AHL or analog; reporter TraA8(4X)-GUS + 35S-VP16-TraR
Hi, to clarify the labels: MET covers GUS activity, average ('- inducer') from 200 upward, NOT MET covers anything below 200.

In: Does the reported GUS activity, average ('- inducer') for `CCCCCC(=O)C(C)(C)C(=O)N[C@@H](CCO)C(=O)O` fall at or above the 200 mark?
Out: NOT MET

In: Please tell me: is the compound CCCCCC(=O)C(CCCC)C(=O)N[C@@H](CCO)C(=O)O (some centres unmarked) at or over 200 in terms of GUS activity, average ('- inducer')?
Out: MET

In: I'd appreciate it if you could say whether CCCCCC(=O)C(C)C(=O)N[C@@H](CCO)C(=O)O (some centres unmarked) has GUS activity, average ('- inducer') at least equal to 200.
Out: NOT MET

In: Please tell me: is the compound CCCCCC(=O)C(CC)C(=O)N[C@@H](CCO)C(=O)O (some centres unmarked) at or over 200 in terms of GUS activity, average ('- inducer')?
Out: MET

In: Kindly determine if GUS activity, average ('- inducer') recorded for CCCCCCC(C(C)=O)C(=O)N[C@@H](CCO)C(=O)O (some centres unmarked) is above or exactly 200.
Out: NOT MET

Data credit: patent EP1507010B1
